target_or_test_system: Adenosylmethionine-8-amino-7-oxononanoate aminotransferase (Mycobacterium tuberculosis)
Sequence (P9WQ81 whole entry): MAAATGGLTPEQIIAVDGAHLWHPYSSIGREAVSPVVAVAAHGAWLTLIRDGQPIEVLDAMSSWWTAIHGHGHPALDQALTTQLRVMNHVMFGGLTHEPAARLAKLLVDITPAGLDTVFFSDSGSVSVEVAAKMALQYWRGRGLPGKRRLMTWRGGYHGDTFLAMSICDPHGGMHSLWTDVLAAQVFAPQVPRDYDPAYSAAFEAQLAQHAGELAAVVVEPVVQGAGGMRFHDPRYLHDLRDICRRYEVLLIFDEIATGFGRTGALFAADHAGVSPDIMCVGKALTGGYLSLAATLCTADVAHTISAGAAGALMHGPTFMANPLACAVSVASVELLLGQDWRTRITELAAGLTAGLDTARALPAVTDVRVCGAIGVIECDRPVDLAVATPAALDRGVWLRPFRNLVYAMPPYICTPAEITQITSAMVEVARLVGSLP
measurement_protocol: Mycobacterium tuberculosis BioA enzyme inhibitor Measured in Biochemical System Using Plate Reader - 2163-02_Inhibitor_Dose_CherryPick_Activity.
Type: functional, Mycobacterium tuberculosis UT205
Calls of active or inactive are those of the source. How the calls were made is not given here.
Measured AC50 accompanies every entry in the list below.
value_kind: AC50

# compound, reported
data = [
    ("CCOC(=O)c1c(C)[n+](-c2ccc(C)cc2)c(CC)c2cc(OC)c(OC)cc12", "4.21 µM (active)"),
    ("Cc1nc2nc(SCC(=O)N3CCOCC3)nn2c(C)c1Cc1c(F)cccc1Cl", "0.217 µM (active)"),
    ("COC(=O)C[C@@H]1C[C@@H]2c3cc(NC(=O)c4cccnc4)ccc3O[C@@H]2[C@@H](CO)O1", "13.6 µM (active)"),
    ("COC(=O)c1c(C(=O)OC)c(-c2ccccc2)n2c1C[S+]([O-])C2 (centres undefined)", "4.67 µM (active)"),
]
